Reference source: ChEMBL document CHEMBL5550138

molecular target: Induced myeloid leukemia cell differentiation protein Mcl-1 (Homo sapiens, UniProt Q07820); experiment: Displacement of biotinylated BH3 peptide from N-terminal His6-tagged human Mcl-1 ligand binding domain (172 to 323 residues) expressed in Escherichia coli BL21(DE3) gold pLysS cells preincubated with protein for 2 hrs followed by incubation with BH3 peptide for 2 hrs by DELFIA assay
Sequence (Q07820 whole entry, the tested form may be a part): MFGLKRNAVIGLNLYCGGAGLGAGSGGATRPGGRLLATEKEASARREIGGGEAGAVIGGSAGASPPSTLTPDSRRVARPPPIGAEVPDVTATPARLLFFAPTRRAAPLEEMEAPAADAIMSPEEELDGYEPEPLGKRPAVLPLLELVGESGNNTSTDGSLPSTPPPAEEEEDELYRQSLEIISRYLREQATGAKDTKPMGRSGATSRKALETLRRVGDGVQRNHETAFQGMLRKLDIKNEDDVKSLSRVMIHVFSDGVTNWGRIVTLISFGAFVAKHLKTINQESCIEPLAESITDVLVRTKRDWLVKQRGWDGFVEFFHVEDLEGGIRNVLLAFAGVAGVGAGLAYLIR
Positions of bridges follow the written chain, without caps; N, C: chain ends. Non-standard residues stand in square brackets, D forms with d. Residues, ends and D or L forms follow the SMILES beside them. *: point of attachment. Benzoyl(2-OMe,5-SO2F) = COc1ccc(S(=O)(=O)F)cc1C(=O)*; S5 = C=CCCC[C@](C)(N)C(=O)O; Dap = NC[C@H](N)C(=O)O
Outcome Measure: pIC50
Expect pIC50 as a plain number equal to -log10 of the molar concentration.

Q: Query: pIC50; subject: CC[C@H](C)[C@H](NC(=O)[C@H](C)NC(=O)[C@H](CCCNC(=N)N)NC(=O)[C@H](CC(C)C)NC(=O)[C@H](CCC(N)=O)NC(=O)[C@]1(C)CCC/C=C/CCC[C@](C)(NC(C)=O)C(=O)N[C@@H](CNC(=O)c2cc(S(=O)(=O)F)ccc2OC)C(=O)N[C@@H]([C@@H](C)CC)C(=O)N[C@@H](C)C(=O)N1)C(=O)NCC(=O)N[C@@H](CC(=O)O)C(=O)N[C@@H](CCCNC(=N)N)C(=O)N[C@@H](Cc1ccccc1)C(N)=O (Ac-[S5][Dap](Benzoyl(2-OMe,5-SO2F))IA[S5]QLRAIGDRF-NH2; staple (E) 1-5)
Result: 7.46

----------
target: Induced myeloid leukemia cell differentiation protein Mcl-1 (Homo sapiens); assay: Displacement of biotinylated BH3 peptide from N-terminal His6-tagged human Mcl-1 ligand binding domain (172 to 323 residues) expressed in Escherichia coli BL21(DE3) gold pLysS cells preincubated with protein for 2 hrs followed by incubation with BH3 peptide for 2 hrs by DELFIA assay
Positions of bridges follow the written chain, without caps; N, C: chain ends. Non-standard residues stand in square brackets, D forms with d. Residues, ends and D or L forms follow the SMILES beside them. *: point of attachment. Benzoyl(2-OMe,5-SO2F) = COc1ccc(S(=O)(=O)F)cc1C(=O)*; Ser(allyl) = C=CCOC[C@H](N)C(=O)O; S5 = C=CCCC[C@](C)(N)C(=O)O; Dap = NC[C@H](N)C(=O)O
compounds and their reported pIC50
Expect pIC50 as a plain number equal to -log10 of the molar concentration.

Sample answers from the record:
Compound	pIC50
CC[C@H](C)[C@H](NC(=O)[C@H](CCCNC(=N)N)NC(=O)[C@]1(C)CCC/C=C\CCC[C@](C)(NC(=O)[C@@H](NC(=O)[C@@H](CNC(=O)c2cc(S(=O)(=O)F)ccc2OC)NC(C)=O)[C@@H](C)CC)C(=O)N[C@H](CCC(=O)O)C(=O)N[C@@H](CCC(N)=O)C(=O)N[C@@H](CC(C)C)C(=O)N1)C(=O)NCC(=O)N[C@@H](CC(=O)O)C(=O)N[C@@H](CCCNC(=N)N)C(=O)N[C@@H](Cc1ccccc1)C(N)=O	6.76
CC[C@H](C)[C@H](NC(=O)[C@@H]1CCCCn2cc(nn2)CCC[C@H](NC(=O)[C@H](C)NC(=O)[C@@H](NC(=O)[C@H](CNC(=O)c2cc(S(=O)(=O)F)ccc2OC)NC(C)=O)[C@@H](C)CC)C(=O)N[C@@H](CCC(N)=O)C(=O)N[C@@H](CC(C)C)C(=O)N[C@@H](CCCNC(=N)N)C(=O)N1)C(=O)NCC(=O)N[C@@H](CC(=O)O)C(=O)N[C@@H](CCCNC(=N)N)C(=O)N[C@@H](Cc1ccccc1)C(N)=O	7.68
CC[C@H](C)[C@H](NC(=O)[C@H](CNC(=O)c1cc(S(=O)(=O)F)ccc1OC)NC(C)=O)C(=O)N[C@@H](C)C(=O)N[C@@]1(C)CCC/C=C\CCC[C@@](C)(C(=O)N[C@H](C(=O)NCC(=O)N[C@@H](CC(=O)O)C(=O)N[C@@H](C)C(=O)N[C@@H](Cc2ccccc2)C(N)=O)[C@@H](C)CC)NC(=O)[C@H](CCCNC(=N)N)NC(=O)[C@H](CC(C)C)NC(=O)[C@H](CCC(N)=O)NC1=O (Ac-[Dap](Benzoyl(2-OMe,5-SO2F))IA[S5]QLR[S5]IGDAF-NH2; staple (Z) 4-8)	7.92
CC[C@H](C)[C@H](NC(=O)[C@H](CNC(=O)c1cc(S(=O)(=O)F)ccc1OC)NC(C)=O)C(=O)N[C@@H](C)C(=O)N[C@@]1(C)CCC/C=C\CCC[C@@](C)(C(=O)N[C@H](C(=O)NCC(=O)N[C@@H](CC(=O)O)C(=O)N[C@@H](CCCNC(=N)N)C(=O)N[C@@H](Cc2ccccc2)C(N)=O)[C@@H](C)CC)NC(=O)[C@H](CCCNC(=N)N)NC(=O)[C@H](CC(C)C)NC(=O)[C@H](CCC(N)=O)NC1=O (Ac-[Dap](Benzoyl(2-OMe,5-SO2F))IA[S5]QLR[S5]IGDRF-NH2; staple (Z) 4-8)	7.85
CC[C@H](C)[C@H](NC(=O)[C@H](CC(=O)O)NC(=O)[C@H](CCCNC(=N)N)NC(=O)[C@H](CC(C)C)NC(=O)[C@H](CCC(N)=O)NC(=O)[C@]1(C)CCC/C=C/CCC[C@](C)(NC(C)=O)C(=O)N[C@@H](CNC(=O)c2cc(S(=O)(=O)F)ccc2OC)C(=O)N[C@@H]([C@@H](C)CC)C(=O)N[C@@H](C)C(=O)N1)C(=O)NCC(=O)N[C@@H](CC(=O)O)C(=O)N[C@@H](CCCNC(=N)N)C(=O)N[C@@H](Cc1ccccc1)C(N)=O (Ac-[S5][Dap](Benzoyl(2-OMe,5-SO2F))IA[S5]QLRDIGDRF-NH2; staple (E) 1-5)	7.52
CC[C@H](C)[C@H](NC(=O)[C@H](CNC(=O)c1cc(S(=O)(=O)F)ccc1OC)NC(C)=O)C(=O)N[C@@H](C)C(=O)N[C@H]1COC/C=C\CCC[C@@](C)(C(=O)N[C@H](C(=O)NCC(=O)N[C@@H](CC(=O)O)C(=O)N[C@@H](CCCNC(=N)N)C(=O)N[C@@H](Cc2ccccc2)C(N)=O)[C@@H](C)CC)NC(=O)[C@H](CCCNC(=N)N)NC(=O)[C@H](CC(C)C)NC(=O)[C@H](CCC(N)=O)NC1=O (Ac-[Dap](Benzoyl(2-OMe,5-SO2F))IA[Ser(allyl)]QLR[S5]IGDRF-NH2; staple (Z) 4-8)	8.18

Q: Query: pIC50; subject: CC[C@H](C)[C@H](NC(=O)[C@H](CCCNC(=N)N)NC(=O)[C@H](CCCNC(=N)N)NC(=O)[C@H](CC(C)C)NC(=O)[C@H](CCC(N)=O)NC(=O)[C@H](CCC(=O)O)NC(=O)[C@H](C)NC(=O)[C@@H](NC(=O)[C@H](CNC(=O)c1cc(S(=O)(=O)F)ccc1OC)NC(C)=O)[C@@H](C)CC)C(=O)NCC(=O)N[C@@H](CC(=O)O)C(=O)N[C@@H](CCCNC(=N)N)C(=O)N[C@@H](Cc1ccccc1)C(N)=O (Ac-[Dap](Benzoyl(2-OMe,5-SO2F))IAEQLRRIGDRF-NH2)
Result: 7.74

Q: What would you report for CC[C@H](C)[C@H](NC(=O)[C@H](C)NC(=O)[C@H](CCCNC(=N)N)NC(=O)[C@H](CC(C)C)NC(=O)[C@H](CCC(N)=O)NC(=O)[C@]1(C)CCC/C=C/CCC[C@](C)(NC(C)=O)C(=O)N[C@@H](CNC(=O)c2cc(S(=O)(=O)F)ccc2OC)C(=O)N[C@@H]([C@@H](C)CC)C(=O)N[C@@H](C)C(=O)N1)C(=O)NCC(=O)N[C@@H](CC(=O)O)C(=O)N[C@@H](C)C(=O)N[C@@H](Cc1ccccc1)C(N)=O (Ac-[S5][Dap](Benzoyl(2-OMe,5-SO2F))IA[S5]QLRAIGDAF-NH2; staple (E) 1-5) ?
Result: 7.77

Q: What would you report for CC[C@H](C)[C@H](NC(=O)[C@H](CCCNC(=N)N)NC(=O)[C@H](CCCNC(=N)N)NC(=O)[C@H](CC(C)C)NC(=O)[C@H](CCC(N)=O)NC(=O)[C@]1(C)CCC/C=C/CCC[C@](C)(NC(C)=O)C(=O)N[C@@H](CNC(=O)c2cc(S(=O)(=O)F)ccc2OC)C(=O)N[C@@H]([C@@H](C)CC)C(=O)N[C@@H](C)C(=O)N1)C(=O)NCC(=O)N[C@@H](CC(=O)O)C(=O)N[C@@H](CCCNC(=N)N)C(=O)N[C@@H](Cc1ccccc1)C(N)=O (Ac-[S5][Dap](Benzoyl(2-OMe,5-SO2F))IA[S5]QLRRIGDRF-NH2; staple (E) 1-5) ?
Result: 7.62

Q: What would you report for CC[C@H](C)[C@H](NC(=O)[C@H](CNC(=O)c1cc(S(=O)(=O)F)ccc1OC)NC(C)=O)C(=O)N[C@@H](C)C(=O)N[C@@H](CCC(=O)O)C(=O)N[C@@H](CCC(N)=O)C(=O)N[C@@H](CC(C)C)C(=O)N[C@@H](CCCNC(=N)N)C(=O)N[C@@]1(C)CCC/C=C\CCC[C@@](C)(C(=O)N[C@@H](Cc2ccccc2)C(N)=O)NC(=O)[C@H](CC(=O)O)NC(=O)CNC(=O)[C@H]([C@@H](C)CC)NC1=O (Ac-[Dap](Benzoyl(2-OMe,5-SO2F))IAEQLR[S5]IGD[S5]F-NH2; staple (Z) 8-12) ?
Result: 7.74
